Assay: chemical genetic growth profiling, strain panel (AID 1159580);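 further: tested at 20 µM; growth read once vehicle control cultures reached saturation at 30 °C; 1 = growth at the plate median or of vehicle wells; lower values mean less growth of the strain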
Conditions: S. cerevisiae deletion strains, growth OD, locus YGR229C, strain SMI1, active compounds read low
In all, about 5,500 compounds went through this assay and about 2,000 (36%) were called active. Roughly 18% stayed inconclusive and do not appear here. The list shows a part of the results.

- Molecule: "COc1cc(N)c(Cl)cc1C(=O)NC1CCN(Cc2ccccc2)CC1"
  normalized growth: 1.02
- Molecule: "COc1cc(C2OC(c3cc(C)ccc3[N+](=O)[O-])=NN2C(C)=O)cc(OC)c1OC (stereo unspecified)"
  normalized growth: 0.999
- Molecule: "N=C(N)c1ccc(N)cc1"
  normalized growth: 1.01
- Molecule: "CC(C)=CCCC1(C)C=Cc2c(O)c3c(c(CC=C(C)C)c2O1)OC12C(=CC4CC1C(C)(C)OC2(C/C=C(\\C)C(N)=O)C4=O)C3=O (stereo unspecified)"
  normalized growth: 0.761
- Molecule: "Nc1ccc(S(=O)(=O)Nc2ccnn2-c2ccccc2)cc1"
  normalized growth: 1.03
- Molecule: "O=C(NC1Cc2ccccc2C1)c1cncc(Br)c1"
  normalized growth: 0.985
- Molecule: "Nc1ccc(S(=O)(=O)c2ccc(N)cc2)cc1"
  normalized growth: 1.03
- Molecule: "Fc1ccc(C(c2ccccc2)(c2ccccc2F)n2ccnc2)cc1 (stereo unspecified)"
  normalized growth: 0.0699
- Molecule: "CC(C)CC(N(C)C)C1(c2ccc(Cl)cc2)CCC1 (stereo unspecified)"
  normalized growth: 0.986
- Molecule: "NCC#Cc1ccccc1"
  normalized growth: 1.07
- Molecule: "CCCCCc1ccc(C(=O)O/N=C\\c2c(Cl)cccc2Cl)cc1"
  normalized growth: 0.929
- Molecule: "CCN1CCC[C@H]1CNC(=O)c1cc(S(N)(=O)=O)ccc1OC"
  normalized growth: 1.02
- Molecule: "O=C(O)CCCCCC[C@H]1C(=O)NC(=O)N1CC[C@@H](O)C1CCCCC1"
  normalized growth: 0.999
- Molecule: "O=C(NC1CCN(Cc2ccc(Cl)c(Cl)c2)CC1)c1ccccc1"
  normalized growth: 1
- Molecule: "NN=C(N)N"
  normalized growth: 1.03
- Molecule: "O=C(CSCc1c(F)cccc1Cl)Nc1ccc(F)c(Cl)c1"
  normalized growth: 0.913
- Molecule: "C=C/C(C)=C\\CC1C(C)(O)CCC2C(C)(C)CCCC21C (stereo unspecified)"
  normalized growth: 0.0733
- Molecule: "O=C(Nc1cc(C(=O)Nc2ccc(S(=O)(=O)O)cc2S(=O)(=O)O)cc(C(=O)Nc2ccc(S(=O)(=O)O)cc2S(=O)(=O)O)c1)Nc1cc(C(=O)Nc2ccc(S(=O)(=O)O)cc2S(=O)(=O)O)cc(C(=O)Nc2ccc(S(=O)(=O)O)cc2S(=O)(=O)O)c1"
  normalized growth: 0.995
- Molecule: "N[C@@H](Cc1c[nH]c2ccccc12)C(=O)O"
  normalized growth: 1.03
- Molecule: "O=[N+]([O-])c1cc(Cl)ccc1S(=O)(=O)c1ccccc1"
  normalized growth: 0.98
- Molecule: "CC(C)=CCCC1(C)C=Cc2c(O)c3c(c(CC=C(C)C)c2O1)OC12C(CC4CC1C(C)(C)OC2(C/C=C(/C)C(=O)O)C4O)C3=O (stereo unspecified)"
  normalized growth: 0.988

The reported measurements were obtained from PubChem BioAssay AID1159580.
